FYI, the data here is from patent US20120177664A1.

# target_or_system: T1, A beta oligomer (synthetic A beta1-40, HCl form, 0.1 mg/ml in PBS, incubated at 37 degrees C for one hour) (UniProt P05067 672-711)
# T1 construct: domain: A beta1-40; non-fibrous multimer of the peptide; also called A beta 1-40 oligomer
# assay_explanation: SPR (Biacore 3000)
# Description: The analysis was carried out by Surface Plasmon Resonance (SPR) using Biacore 3000 (GE Healthcare Sciences).
measurement_label: koff (s⁻¹)
Please give a number only; it is taken to be in s⁻¹.

// known answers, use as guide
binder	koff / s⁻¹
IR-146 antibody (antibody, mouse IgG2a, V domains shown, mouse IgG2a) VH: DVQLVESGGGLVQPGGSRKLSCAASGFTFSSFGMHWVRQAPEKGLEWVAYISSGSSTIYYADTVKGRFTISRDNPKNTLFLQMTSLRSEDTAMYYCARGGTGAMDYWGQGTSVTVSS VL: DVLMTQTPLSLPVSLGDQASISCRSSQSIVHSNGNTYLEWYLQKPGQSPKLLIYKVSNRFSGVPDRFSGSGSGTDFTLKISRVEAEDLGVYYCFQGSHVPPTFGGGTKLEIK	0.383
IR-036 antibody (antibody, mouse IgG2b, V domains shown, mouse IgG2b) VH: QVTLKESGPGILQPSQTLSLTCSFSGFSLSTSGMGVSWIRQPSGKGLEWLAHIYWDDDKRYNPSLKSRLTISKDTSRNQVFLKITSVDTADTATYYCARRANYYGYGMDAMDYWGQGTSVTVSS VL: DVLMTQTPLSLPVSLGDQASISCRSSQSIVHSNGNTYLEWYLQKPGQSPKLLIYKVSNRFSGVPDRFSGSGSGTDFTLKISRVEAEDLGVYYCFQGSHVPLTFGAGTKLELK	0.00876
IR-081 antibody (antibody, mouse IgG2b, V domains shown, mouse IgG2b) VH: DVQLVESGGGLVQPGGSRKLSCAASGFTFSSFGMHWVRQAPEKGLEWVAYISSGSSTIYYADTVKGRFTISRDNPKNTLFLQMTSLRSEDTAMYYCARRWGEGAMDYWGQGTSVTVSS VL: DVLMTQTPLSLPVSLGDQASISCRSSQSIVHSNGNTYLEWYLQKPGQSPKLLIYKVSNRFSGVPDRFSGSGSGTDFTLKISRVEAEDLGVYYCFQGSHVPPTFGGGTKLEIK	0.421
IR-128 antibody (antibody, V domains shown, mouse IgG2a) VH: DVQLVESGGGLVQPGGSRKLSCAASGFTFSSFGMHWVRQAPEKGLEWVAYISSGSSTIYYADTVKGRFTISRDNPKNTLFLQMTSLRSEDTAMYYCAREGHFDYWGQGTTLTVSS VL: DVVMTQTPLSLPVSLGDQASISCRSSQSLVHSNGNTYLHWYLQKPGQSPKLLIYKVSNRFSGVPDRFSGSGSGTDFTLKISRVEAEDLGVYFCSQSTHVPPTFGGGTKLEIK	0.37

Query koff for IR-057 antibody (antibody, mouse IgG1, V domains shown, mouse IgG1) VH: DVQLVESGGGLVQPGGSRKLSCAASGFTFSSFGMHWVRQAPEKGLEWVAYISSGSSTIYYADTVKGRFTISRDNPKNTLFLQMTSLRSEDTAMYYCARYGNYAMDYWGQGTSVTVSS VL: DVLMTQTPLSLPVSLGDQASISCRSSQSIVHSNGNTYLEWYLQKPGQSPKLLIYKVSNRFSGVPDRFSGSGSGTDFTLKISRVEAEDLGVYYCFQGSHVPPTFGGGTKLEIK
0.0579

Query koff for IR-079 antibody (antibody, mouse IgG2b, V domains shown, mouse IgG2b) VH: DVQLVESGGGLVQPGGSRKLSCAASGFTFSSFGMHWVRQAPEKGLEWVAYISSGSSTIYYADTVKGRFTISRDNPKNTLFLQMTSLRSEDTAMYYCARYGTLYYYAMDYWGQGTSVTVSS VL: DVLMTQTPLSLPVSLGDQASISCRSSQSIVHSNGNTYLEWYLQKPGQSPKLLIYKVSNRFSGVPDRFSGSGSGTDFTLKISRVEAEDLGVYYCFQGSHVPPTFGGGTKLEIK
0.297
